Data origin: the DeepSol protein solubility set

# protocolDetails: soluble on expression in E. coli; label from the status in PepcDB or PDB records
experimentalReadout: soluble on expression in E. coli

Worked cases, answers included:
>>> valuemeasured("MSLRNKLQQAKRIVIKVGTSSLIYPNGNINLKAIDQLAFTLSDLSNQGKEIILVSSGAIGVGLNKLNLSVRPTTIPEQQAVAAVGQAELMNIYNQRFSTYSQQMAQVLLTRDVIEYPESRNNVTNTFEQLLKMNIIPIVNENDTVAIEELDHLTKFGDNDQLSAIVCQIVQADLLVMLSDIDGFFSDNPTVNKEATLFSEINEINEDLFQLAGGKGSRFGTGGMSSKLKAAERVLANQQAMILANGKQPKIIFEILEGKDIGTLFIKGGHESDEGHHHHHH")
"soluble"
>>> valuemeasured("SNAMKELIKEHQKDINPALQLHDWVEYYRPFAANGQSANYIPALGKVNDSQLGICVLEPDGTMIHAGDWNVSFTMQSISKVISFIAACMSRGIPYVLDRVDVEPTGDAFNSIIRLEINKPGKPFNPMINAGALTIASILPGESAYEKLEFLYSVMETLIGKRPRIHEEVFRSEWETAHRNRALAYYLKETNFLEAEVEETLEVYLKQCAMESTTEDIALIGLILAHDGYHPIRHEQVIPKDVAKLAKALMLTCGMYNASGKYAAFVGVPAKSGVSGGIMALVPPSARREQPFQSGCGIGIYGPAIDEYGNSLTGGMLLKHMAQEWELSIF")
"soluble"
>>> valuemeasured("QGMISFTQQNEQEADRIGIQVLQRSGFDPQAMPTFLEKLLDQARYSSRPPEILLTHPLPESRLADARNRANQMRPIVVQSSEDFYLAKVRTLGMYNSGRNQLTSDLLDEWAKGNVRQQRAAQYGRALQAMEANKYDEARKTLQPLLAAEPGNAWYLDLATDIDLGQNKANDAINRLKNARDLRTNPVLQLNLANAYLQGGQPQEAANILNRYTFNNKDDSNGWDLLAQAEAALNNRDQELAARAEGYALAGRLDQAISLLSSASS")
"not soluble"
>>> valuemeasured("RNQVEHEAKVSLAKSFGAGIAHEMRNPLSGLCTSIDVIQSVLPNKKAMGEKDQYVMSGEDVTLLREVSEDAMNIIHSGNETIDLLLTSIDENRVSRSSFKRYSAQSVVEKAIESFSYKRSTDRFAISFDARSEFDFLGSDTLLKYVMYNLFKNAFHHRSSDEFHIHVSMQSNDTANQIVVTDNGSGIAPDVIRHIFQDFYTTGKSGSYGLGLPFCKKVMRSFGGNIKCISQPGEWSQFTLTFPPITSDTVTEIKDELTKMKSILLVSNQDIIVQKMADISRFMGFDVTVLDVKSVFKKKEYEFEFDLIFVDVESLDVLENQLDRIESLLSFTEARVVYLFEHKPAQRAKKVGHDPIWVETQAWLLNTKATIERLLYDSTYISSTLPSAPL")
"not soluble"
>>> valuemeasured("MSLTIPGVVIIGGAHGTLALARSLGVLNVPVYYLTHDSPLPGWSRFVRETIRWAGPHDDGAMAFLREMAEKPGLKGCLLVPSGDGEVQLVSQHREELSALYKIILPEWTNLQWLCEKPLLYKRAAELGVSIPRTYALTSAADIDGLDVMFPVILKPHMGGGNTSIARAKVIRADDREELKAAFVDASGEIGPDNVVVQELIPGGGESQFSYAALWLNGEPIAEFTARRARQYPVDFGYTSTRVEVVDNRQAIEAARKILKSAGHSGLVEVEFKLDGRDGALKLLDVNPRPWSWFGLCSAAGINLGGLLWRVANEGHHHHHH")
"soluble"
>>> valuemeasured("GVLAPVVPGKALEFPQDFGAHNDFRIEWWYVTGWLETPTGKPLGFQITFFRTATEIDRDNPSHFAPDQLIIAHVALSDPAIGKLQHDQKIARAGFDLAYARTGNTDVKLDDWIFVRETDGRYRTRIEAEDFTLTFILTPSQPLMLQGENGFSRKGPGAPQASYYYSEPHLQVSGIINRQGEDIPVTGTAWLDREWSSEYLDPNAAGWDWISANLDDGSALMAFQIRGKDDSKIWAYAALRDASGHTRLFTPDQVSFHPIRTWRSARTQAVYPVATRVLTGETEWQITPLMDDQELDSRASAGAVYWEGAVTFTRDGQPAGRGYMELTGYVRPLSM")
"soluble"

Input: I would be grateful if you could share the reported soluble on expression in E. coli for "MGSDKIHHHHHHMPDNANIAASHTQAHGSSYDDKPTQPQCDSIKLNEIGPNLLEPRAIEPSATKPNAIKHESVITKQKQKVIFIGLPRTGTTSVSVALLEQGLKVAHMAFTKEAFMQADAISDAPCFSDFKQLDELFPKAKFVYLDRELDSWVPSMQMLLSRMLPHLDAKIGRFHPIMKRSFRHTFGVGVVENPQDEQHLIDCYQHHKTEVFNYFAGRQDLLSIDVSQQGALGQLLAFMELTSAENHNLSFPKLNVGRNVASWDEYKHPNKISANAAGPEKRKYFDYKV" .
Output: not soluble

Input: Same for "MKEIDWANLSFGYMKTDYNVRINFRNGAWGELEVSSDEHLNLHMAATCLHYGQEAFEGLKAFRGKDGKVRIFRLEENAARLQSTCQGILMAELPTERFKEAILKVVKLNERFIPPYETGASLYIRPLLIGTSAQVGVHPAEEYMFVVFVTPVGPYFKGGFSTNPYVIIREFDRAAPHGTGIYKVGGNYAASLRANKKAHDLGYSCEFYLDAKEKKYIDECGAANFFGIKDNTYITPKSSSILPSITNKSLMQLAEDMGIKVERRPIPEEELETFEEAGACGTAAVISPIQRIDDLENGKSYVISKDGKPGPICTKLYNKLRGIQYGDEPDTHGWVTIVE"
Output: not soluble

Input: Then this sequence: "MSLESTNRLRYLIAGTGGVGGSIAGFLSLAGKDVTCIARGAHLQAIQQDGLKLKSDLKGEHALRINACTAEEYNGKADVIFVCVKGYSVDSITELIKRAAHDRTIVIPILNVYGTGPRIQRLVPGVTVLDGCIYIVGFVSGPGEITQMGTIFRLVYGAHRGILVPAGLMEAVQRDLQESGIKVEISSDINRDTFIKWSFISAMAVTGAYFDVPMGEVQKPGKVRDTFIGLSTESAALGKKLGIEFKEDIVTYNLKVIDKLAPESTASMQKDIARGHESEVQGLLFDMITAAEEQGIDVPTYREVAKKFIKQEGHHHHHH"
Output: soluble
